- Tested on: HMLE_sh_eGFP viability, CellTiter-Glo luminescence, 72 h
- test.method.notes: cytotoxicity in HMLE control line with eGFP shRNA, dose response, counter-screen for HMLE_sh_ECad selective toxicity project, cell-based, HMLE_sh_eGFP, luminescence (AID 463074);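 further: counterscreen control line to flag general toxicity for the HMLE_sh_ECad screen; potency for loss of viability as luminescence drops below DMSO wells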
measurement.label: AC50

A selection of reference data follows.
1) COc1ccc(/C=C2/C(=O)N(c3nc4ccccc4s3)N=C2CSc2ccc(Cl)cc2)cc1	6.5 µM
2) Oc1ccc(N=Nc2nc(-c3ccccc3)c(-c3ccccc3)[nH]2)cc1	4.53 µM
3) Cc1ccccc1CNc1ccc(C(CC(N)=O)NC(=O)c2ccccc2)cc1[N+](=O)[O-] (centres undefined)	6.24 µM
4) COc1ccc(C)cc1Nc1n[n+](-c2ccccc2)c(-c2c(OC)ccc3ccccc23)s1	6.93 µM

stdin: Please give the measured AC50 for this compound: CC(=O)c1ccc(N2CCC(c3cc(-c4ccc(Cl)cc4)n[nH]3)CC2)c([N+](=O)[O-])c1
stdout: 3.62 µM

stdin: Another compound to look at: C[C@@H]1O[C@@H](O[C@H]2C[C@@H](O)[C@]3(CO)[C@@H]4C(CC[C@]3(O)C2)[C@@]2(O)CC[C@H](C3COC(=O)C3)[C@@]2(C)C[C@H]4O)[C@H](O)[C@H](O)[C@H]1O (some centres undefined)
stdout: 0.707 µM

stdin: Another compound to look at: Cc1ccc(NS(=O)(=O)c2ccc(Cl)c(NC(=S)NC(=O)C3CCCCC3)c2)cc1Cl
stdout: 3.58 µM

stdin: Another compound to look at: Cc1oc2c(F)c(F)c(F)c(F)c2c1S(=O)(=O)Nc1cccc(C(F)(F)F)c1
stdout: 4.95 µM

stdin: Another compound to look at: COc1cc(CNc2ccc(CNc3ncn[nH]3)cc2)ccc1OCc1ccccc1
stdout: 0.708 µM

----------
- System: HMLE_sh_eGFP viability, CellTiter-Glo luminescence, 72 h
- test.method.notes: cytotoxicity in HMLE control line with eGFP shRNA, dose response, counter-screen for HMLE_sh_ECad selective toxicity project, cell-based, HMLE_sh_eGFP, luminescence (AID 463074);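 further: counterscreen control line to flag general toxicity for the HMLE_sh_ECad screen; potency for loss of viability as luminescence drops below DMSO wells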
measurement.label: AC50

stdin: Please give the measured AC50 for this compound: O=C(CN(c1cccc(C(F)(F)F)c1)S(=O)(=O)c1ccc(Cl)c([N+](=O)[O-])c1)NCc1ccccc1Cl
stdout: 2.6 µM

stdin: Another compound to look at: CC12CCC(C/C1=N\N=C1\NC(=O)/C(=C\c3cccc(Br)c3)S1)C2(C)C (stereo not given)
stdout: 2.49 µM

stdin: Another compound to look at: O=C(/C=C/c1ccc2c(c1)OCCCO2)c1ccc2ccccc2c1O
stdout: 12 µM

stdin: Another compound to look at: CC(C)Cc1nc2oc3c(Cl)ncnc3c2c2c1CCCC2
stdout: 4.82 µM

stdin: Another compound to look at: COc1ccc(/C=C/C(=O)c2ccc(NS(=O)(=O)c3ccc(C)cc3)cc2)cc1O
stdout: 3.56 µM

----------
- System: HMLE_sh_eGFP viability, CellTiter-Glo luminescence, 72 h
- test.method.notes: cytotoxicity in HMLE control line with eGFP shRNA, dose response, counter-screen for HMLE_sh_ECad selective toxicity project, cell-based, HMLE_sh_eGFP, luminescence (AID 463074);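 further: counterscreen control line to flag general toxicity for the HMLE_sh_ECad screen; potency for loss of viability as luminescence drops below DMSO wells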
Listed next: entries and their corresponding AC50.

A selection of reference data follows.
1) Cc1nc2c(sc3nc(N4CCOCC4)c4c(c32)CC(C)(C)OC4)c(-c2ccccc2)c1C(=O)O	1.98 µM
2) Cc1c(Cl)c([N+](=O)[O-])nn1Cc1ccc(C(=O)N/N=C\c2cc(Cl)ccc2O)o1	4.54 µM
3) CNC(C)C(=O)NC(C(=O)N1CCCC1C(=O)NNc1ccccc1)C(C)C (centres undefined)	6.41 µM

stdin: Please give the measured AC50 for this compound: C=C1/C(=C\C=C2/CCC[C@]3(C)[C@@H]([C@H](C)/C=C/[C@@H](O)C4CC4)CC[C@@H]23)C[C@@H](O)C[C@@H]1O
stdout: 6.49 µM
